- testTarget: Histone deacetylase 9 (Homo sapiens, UniProt Q9UKV0)
- Sequence (Q9UKV0 whole entry): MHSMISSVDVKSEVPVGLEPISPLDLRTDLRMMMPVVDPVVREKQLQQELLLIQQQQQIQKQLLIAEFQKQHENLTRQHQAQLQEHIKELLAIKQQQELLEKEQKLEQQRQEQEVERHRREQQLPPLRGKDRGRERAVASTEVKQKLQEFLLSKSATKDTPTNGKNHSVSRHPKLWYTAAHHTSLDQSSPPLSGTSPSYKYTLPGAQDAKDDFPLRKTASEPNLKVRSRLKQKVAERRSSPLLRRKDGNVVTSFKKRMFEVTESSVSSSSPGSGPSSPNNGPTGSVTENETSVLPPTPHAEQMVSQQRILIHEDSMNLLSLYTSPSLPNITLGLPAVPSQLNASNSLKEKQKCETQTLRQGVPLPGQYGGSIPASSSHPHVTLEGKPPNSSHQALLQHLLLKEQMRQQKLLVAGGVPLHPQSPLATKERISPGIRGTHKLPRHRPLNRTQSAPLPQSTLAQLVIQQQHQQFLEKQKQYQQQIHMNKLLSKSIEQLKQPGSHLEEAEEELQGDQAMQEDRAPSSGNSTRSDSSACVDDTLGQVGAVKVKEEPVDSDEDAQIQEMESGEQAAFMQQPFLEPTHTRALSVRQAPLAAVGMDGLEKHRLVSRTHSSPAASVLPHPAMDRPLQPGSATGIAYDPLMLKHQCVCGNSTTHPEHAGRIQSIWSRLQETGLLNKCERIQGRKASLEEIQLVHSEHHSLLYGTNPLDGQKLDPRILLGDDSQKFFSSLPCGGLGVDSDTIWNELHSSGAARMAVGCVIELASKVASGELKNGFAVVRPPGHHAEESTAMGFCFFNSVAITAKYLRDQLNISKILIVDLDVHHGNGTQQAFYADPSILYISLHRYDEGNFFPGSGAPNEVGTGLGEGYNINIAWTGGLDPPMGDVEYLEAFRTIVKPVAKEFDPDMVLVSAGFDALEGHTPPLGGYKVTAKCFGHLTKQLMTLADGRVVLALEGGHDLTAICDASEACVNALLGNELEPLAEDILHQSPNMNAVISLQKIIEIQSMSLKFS
- assayName: Inhibition of HDAC9 in human HeLa nuclear extract using Boc-Lys(Ac)-AMC as substrate preincubated for 5 mins followed by substrate addition measured after 30 mins by fluorometric assay
- Assay type: cell-free
assayMetric: IC50

{"compound": "CN(Cc1cnc2nc(N)nc(N)c2n1)c1ccc(C(=O)NC(CCP(=O)(O)O)P(=O)(O)O)cc1 (stereo unspecified)", "result": "> 40 µM"}

----------
- testTarget: UniProt Q9UQL6
- Sequence (Q9UQL6 whole entry): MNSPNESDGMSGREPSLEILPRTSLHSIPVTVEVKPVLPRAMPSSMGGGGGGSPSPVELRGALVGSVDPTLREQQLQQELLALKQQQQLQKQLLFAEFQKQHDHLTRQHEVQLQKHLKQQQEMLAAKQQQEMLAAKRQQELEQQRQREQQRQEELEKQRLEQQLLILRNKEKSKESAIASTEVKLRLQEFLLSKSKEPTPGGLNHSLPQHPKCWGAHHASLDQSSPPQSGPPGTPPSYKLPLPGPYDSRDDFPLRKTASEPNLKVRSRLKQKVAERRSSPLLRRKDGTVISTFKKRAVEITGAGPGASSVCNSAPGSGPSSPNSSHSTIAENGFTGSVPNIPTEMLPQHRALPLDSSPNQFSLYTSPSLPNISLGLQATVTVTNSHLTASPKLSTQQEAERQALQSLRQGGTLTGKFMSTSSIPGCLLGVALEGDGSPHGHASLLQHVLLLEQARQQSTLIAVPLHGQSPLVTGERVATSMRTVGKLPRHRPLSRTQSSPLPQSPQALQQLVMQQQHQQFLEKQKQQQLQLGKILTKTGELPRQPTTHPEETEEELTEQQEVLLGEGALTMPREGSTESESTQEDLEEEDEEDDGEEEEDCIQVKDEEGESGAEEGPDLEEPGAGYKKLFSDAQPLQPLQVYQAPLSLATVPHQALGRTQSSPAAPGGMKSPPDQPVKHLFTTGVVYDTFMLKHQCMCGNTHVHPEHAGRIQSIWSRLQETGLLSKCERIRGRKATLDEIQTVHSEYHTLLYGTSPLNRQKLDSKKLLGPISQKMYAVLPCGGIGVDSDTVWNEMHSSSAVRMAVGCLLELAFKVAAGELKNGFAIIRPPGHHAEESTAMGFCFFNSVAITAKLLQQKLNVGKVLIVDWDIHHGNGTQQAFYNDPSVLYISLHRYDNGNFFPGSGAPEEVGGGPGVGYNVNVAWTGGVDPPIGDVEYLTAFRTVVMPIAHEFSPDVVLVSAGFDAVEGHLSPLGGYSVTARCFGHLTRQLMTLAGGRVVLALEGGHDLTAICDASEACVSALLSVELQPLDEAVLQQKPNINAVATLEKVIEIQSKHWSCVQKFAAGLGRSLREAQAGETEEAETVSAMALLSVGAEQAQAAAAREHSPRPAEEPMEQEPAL
- assayName: Inhibition of HDAC5 (unknown origin)

{"compound": "CN(Cc1cnc2nc(N)nc(N)c2n1)c1ccc(C(=O)NC(CCP(=O)(O)O)P(=O)(O)O)cc1 (stereo unspecified)", "testTarget": "UniProt Q9UQL6", "IC50, nM": 1270}

----------
- testTarget: Histone deacetylase 4 (Homo sapiens, UniProt P56524)
- Sequence (P56524 whole entry): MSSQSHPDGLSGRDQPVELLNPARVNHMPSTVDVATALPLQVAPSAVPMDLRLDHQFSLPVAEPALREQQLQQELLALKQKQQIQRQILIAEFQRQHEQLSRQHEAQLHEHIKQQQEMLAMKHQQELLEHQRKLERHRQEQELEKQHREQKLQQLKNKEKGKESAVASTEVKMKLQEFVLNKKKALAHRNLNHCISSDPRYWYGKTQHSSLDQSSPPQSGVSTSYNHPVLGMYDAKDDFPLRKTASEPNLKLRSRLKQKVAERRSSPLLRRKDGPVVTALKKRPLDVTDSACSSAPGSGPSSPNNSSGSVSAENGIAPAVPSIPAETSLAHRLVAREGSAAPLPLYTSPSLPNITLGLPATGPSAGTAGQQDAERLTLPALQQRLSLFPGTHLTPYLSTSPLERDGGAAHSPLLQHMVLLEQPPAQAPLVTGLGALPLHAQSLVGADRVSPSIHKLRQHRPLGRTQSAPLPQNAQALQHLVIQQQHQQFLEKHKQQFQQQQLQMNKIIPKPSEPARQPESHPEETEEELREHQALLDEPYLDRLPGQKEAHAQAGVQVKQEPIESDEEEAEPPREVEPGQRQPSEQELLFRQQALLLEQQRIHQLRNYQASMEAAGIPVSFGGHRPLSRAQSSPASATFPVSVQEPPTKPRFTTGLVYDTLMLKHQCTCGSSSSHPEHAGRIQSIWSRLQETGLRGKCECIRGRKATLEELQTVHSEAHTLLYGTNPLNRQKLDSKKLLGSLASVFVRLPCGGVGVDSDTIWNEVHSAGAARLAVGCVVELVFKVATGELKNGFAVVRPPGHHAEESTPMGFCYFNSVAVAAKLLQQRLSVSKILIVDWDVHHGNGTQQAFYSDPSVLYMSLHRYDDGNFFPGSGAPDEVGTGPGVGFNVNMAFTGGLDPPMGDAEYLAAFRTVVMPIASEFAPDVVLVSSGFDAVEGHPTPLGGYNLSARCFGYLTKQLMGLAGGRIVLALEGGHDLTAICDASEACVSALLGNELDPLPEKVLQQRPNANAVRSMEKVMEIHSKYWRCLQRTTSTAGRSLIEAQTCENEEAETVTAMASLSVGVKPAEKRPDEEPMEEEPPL
- assayName: Inhibition of HDAC4 (unknown origin)

{"compound": "CN(Cc1cnc2nc(N)nc(N)c2n1)c1ccc(C(=O)NC(CCP(=O)(O)O)P(=O)(O)O)cc1 (stereo unspecified)", "measurementUnits": "µM", "IC50": 4.16}

----------
- testTarget: Protein deacetylase HDAC6 (Homo sapiens)
- Sequence (Q9UBN7 whole entry): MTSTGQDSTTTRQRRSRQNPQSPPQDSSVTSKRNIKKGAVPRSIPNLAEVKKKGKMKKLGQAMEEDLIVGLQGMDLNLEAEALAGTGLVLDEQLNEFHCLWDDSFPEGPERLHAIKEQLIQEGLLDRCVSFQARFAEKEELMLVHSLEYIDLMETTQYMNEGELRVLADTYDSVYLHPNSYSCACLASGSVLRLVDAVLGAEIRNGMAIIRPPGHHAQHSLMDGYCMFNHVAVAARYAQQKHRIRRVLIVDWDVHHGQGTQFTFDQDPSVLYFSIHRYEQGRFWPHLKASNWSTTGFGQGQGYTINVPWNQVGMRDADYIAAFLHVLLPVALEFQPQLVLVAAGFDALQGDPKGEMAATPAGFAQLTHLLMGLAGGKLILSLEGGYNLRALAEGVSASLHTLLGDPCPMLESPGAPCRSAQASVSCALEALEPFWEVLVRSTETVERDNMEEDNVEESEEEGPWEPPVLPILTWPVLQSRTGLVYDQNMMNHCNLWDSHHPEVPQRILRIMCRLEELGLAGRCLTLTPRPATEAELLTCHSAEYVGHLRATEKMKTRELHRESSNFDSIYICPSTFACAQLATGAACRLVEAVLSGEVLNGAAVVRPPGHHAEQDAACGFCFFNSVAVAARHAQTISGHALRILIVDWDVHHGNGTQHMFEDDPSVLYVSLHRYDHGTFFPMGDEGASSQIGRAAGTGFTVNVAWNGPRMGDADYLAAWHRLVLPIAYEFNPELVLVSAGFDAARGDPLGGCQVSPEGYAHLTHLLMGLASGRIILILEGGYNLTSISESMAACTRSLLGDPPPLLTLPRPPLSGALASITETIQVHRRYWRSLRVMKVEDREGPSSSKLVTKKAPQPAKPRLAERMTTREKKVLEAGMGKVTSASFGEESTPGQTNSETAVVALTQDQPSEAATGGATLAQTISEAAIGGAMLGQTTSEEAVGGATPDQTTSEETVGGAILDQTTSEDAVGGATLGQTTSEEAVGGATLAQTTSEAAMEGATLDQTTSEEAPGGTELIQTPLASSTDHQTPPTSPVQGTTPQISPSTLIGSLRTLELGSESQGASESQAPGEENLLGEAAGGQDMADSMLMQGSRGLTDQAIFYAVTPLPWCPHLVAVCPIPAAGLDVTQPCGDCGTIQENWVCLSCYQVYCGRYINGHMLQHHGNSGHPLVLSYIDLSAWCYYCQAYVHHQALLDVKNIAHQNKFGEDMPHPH
- assayName: Inhibition of HDAC6 (unknown origin)
pIC50: −log10 of the molar value.

{"compound": "CN(Cc1cnc2nc(N)nc(N)c2n1)c1ccc(C(=O)NC(CCP(=O)(O)O)P(=O)(O)O)cc1 (stereo unspecified)", "pIC50": "< 4.40"}

----------
- testTarget: Histone deacetylase 4 (Homo sapiens, UniProt P56524)

{"smilesStructure": "CN1CCC(CNC(=O)c2cccc(-c3noc(C(F)(F)F)n3)c2)(c2nc(-c3ccccc3)cs2)CC1", "testTarget": "Histone deacetylase 4 (Homo sapiens, UniProt P56524)", "measurementUnits": "nM", "Ki": 75}

----------
- testTarget: Protein deacetylase HDAC6 (Homo sapiens, UniProt Q9UBN7)
- Sequence (Q9UBN7 whole entry): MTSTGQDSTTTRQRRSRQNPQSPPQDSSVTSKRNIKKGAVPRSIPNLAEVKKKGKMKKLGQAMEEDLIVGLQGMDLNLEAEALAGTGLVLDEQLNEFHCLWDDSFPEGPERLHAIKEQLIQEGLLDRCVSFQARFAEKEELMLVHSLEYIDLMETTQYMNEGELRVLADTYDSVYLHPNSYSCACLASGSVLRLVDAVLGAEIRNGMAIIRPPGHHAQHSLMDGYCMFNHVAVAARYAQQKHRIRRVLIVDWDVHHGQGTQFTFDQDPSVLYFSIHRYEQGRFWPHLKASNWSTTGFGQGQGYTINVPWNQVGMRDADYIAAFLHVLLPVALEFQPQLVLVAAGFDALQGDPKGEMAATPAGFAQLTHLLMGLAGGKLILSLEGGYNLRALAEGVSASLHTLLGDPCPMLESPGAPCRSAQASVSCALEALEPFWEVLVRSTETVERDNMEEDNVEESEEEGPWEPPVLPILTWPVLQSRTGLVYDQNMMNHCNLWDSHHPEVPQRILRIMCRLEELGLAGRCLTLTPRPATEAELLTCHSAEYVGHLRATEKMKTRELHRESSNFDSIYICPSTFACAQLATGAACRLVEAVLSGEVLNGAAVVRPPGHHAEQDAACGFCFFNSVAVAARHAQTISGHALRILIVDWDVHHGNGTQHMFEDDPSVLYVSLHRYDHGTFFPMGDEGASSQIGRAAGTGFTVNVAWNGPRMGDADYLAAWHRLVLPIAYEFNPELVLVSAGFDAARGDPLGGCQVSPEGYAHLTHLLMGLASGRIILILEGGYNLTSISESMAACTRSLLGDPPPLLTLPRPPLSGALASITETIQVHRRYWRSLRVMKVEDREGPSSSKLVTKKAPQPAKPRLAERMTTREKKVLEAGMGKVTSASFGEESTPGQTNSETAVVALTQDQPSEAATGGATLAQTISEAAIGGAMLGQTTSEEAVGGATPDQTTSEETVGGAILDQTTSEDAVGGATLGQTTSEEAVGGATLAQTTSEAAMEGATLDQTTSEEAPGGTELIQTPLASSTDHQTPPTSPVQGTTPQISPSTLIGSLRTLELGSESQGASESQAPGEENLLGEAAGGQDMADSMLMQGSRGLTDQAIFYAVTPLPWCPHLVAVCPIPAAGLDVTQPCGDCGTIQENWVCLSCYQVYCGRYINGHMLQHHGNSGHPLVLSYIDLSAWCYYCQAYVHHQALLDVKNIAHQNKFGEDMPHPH
- assayName: Inhibition of HDAC6 in human HeLa nuclear extract using Boc-Lys(Ac)-AMC as substrate preincubated for 5 mins followed by substrate addition measured after 30 mins by fluorometric assay
- Format: cell-free

{"molecule": "CN(Cc1cnc2nc(N)nc(N)c2n1)c1ccc(C(=O)NC(CCP(=O)(O)O)P(=O)(O)O)cc1 (stereo unspecified)", "IC50": "> 40 µM"}

----------
- testTarget: Histone deacetylase 11 (Homo sapiens)
- Sequence (Q96DB2 whole entry): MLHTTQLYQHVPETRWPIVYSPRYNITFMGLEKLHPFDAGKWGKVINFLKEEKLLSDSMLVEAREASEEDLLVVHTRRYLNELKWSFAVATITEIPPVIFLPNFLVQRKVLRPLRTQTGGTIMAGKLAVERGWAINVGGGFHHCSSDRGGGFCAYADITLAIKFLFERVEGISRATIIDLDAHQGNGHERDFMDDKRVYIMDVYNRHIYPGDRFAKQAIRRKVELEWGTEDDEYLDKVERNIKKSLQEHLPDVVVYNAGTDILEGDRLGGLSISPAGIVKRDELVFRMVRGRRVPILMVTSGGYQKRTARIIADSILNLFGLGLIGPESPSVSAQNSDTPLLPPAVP
assayMetric: Ki

{"smilesStructure": "CN1CCC(CNC(=O)c2cccc(-c3noc(C(F)(F)F)n3)c2)(c2nc(-c3ccccc3)cs2)CC1", "result": "> 19 µM"}

----------
pKi: −log10 of the molar value.
Read-out record for Histone deacetylase 3 (Homo sapiens, UniProt O15379): pKi
assayMetric: pKi

{"smilesStructure": "CN1CCC(CNC(=O)c2cccc(-c3noc(C(F)(F)F)n3)c2)(c2nc(-c3ccccc3)cs2)CC1", "testTarget": "Histone deacetylase 3 (Homo sapiens, UniProt O15379)", "assayMetric": "pKi", "result": "< 4.37"}
{"smilesStructure": "CN1CCC(CNC(=O)c2cccc(C(=O)NO)c2)(c2nc(-c3ccccc3)cs2)CC1", "testTarget": "Histone deacetylase 3 (Homo sapiens, UniProt O15379)", "assayMetric": "pKi", "result": "< 4.37"}

----------
Read-out record for Histone deacetylase 2 (Homo sapiens, UniProt Q92769): pKi
pKi: −log10 of the molar value.

{"smilesStructure": "CN1CCC(CNC(=O)c2cccc(C(=O)NO)c2)(c2nc(-c3ccccc3)cs2)CC1", "pKi": "< 4.72"}
{"smilesStructure": "CN1CCC(CNC(=O)c2cccc(-c3noc(C(F)(F)F)n3)c2)(c2nc(-c3ccccc3)cs2)CC1", "pKi": "< 4.72"}

----------
- testTarget: Histone deacetylase 9 (Homo sapiens, UniProt Q9UKV0)
- assayName: Inhibition of HDAC9 (unknown origin)
assayMetric: IC50 (µM)

{"compound": "CN(Cc1cnc2nc(N)nc(N)c2n1)c1ccc(C(=O)NC(CCP(=O)(O)O)P(=O)(O)O)cc1 (stereo unspecified)", "measurementUnits": "µM", "numericValue": 7.84}

The values you see were collected from ChEMBL document CHEMBL4364347.
